Origin of measurements: ChEMBL document CHEMBL5096200

- target-under-test: Genome polyprotein (dengue virus type 2)
- assay: Inhibition of DENV2 NS2B-NS3 protease
measure: pIC50
Answers are plain numbers, as −log10 of the molar value.

-- ask Provide pIC50 value for the following compound: CCN1/C(=C/C=C/c2oc3ccc4ccccc4c3[n+]2CC)Oc2ccc3ccccc3c21
-- reply 4.57

====

- target-under-test: Genome polyprotein (dengue virus type 2)
- assay: Inhibition of DENV2 NS2B-NS3 protease
measure: pKi
One number for each entry, as −log10 of the molar value.

-- ask # return pKi of IVERMECTIN (system: Genome polyprotein (dengue virus type 2))
-- reply 4.10

====

- target-under-test: Genome polyprotein (dengue virus type 2)
- assay: Inhibition of DENV2 NS2B-NS3 protease
Structures can show the parent of a compound that is named as a salt. Positions of bridges follow the written chain, without caps; N, C: chain ends. Non-standard residues stand in square brackets, D forms with d. Residues, ends and D or L forms follow the SMILES beside them. NBnAla = C[C@H](NCc1ccccc1)C(=O)O
Exercise: state measured Ki for each of the compounds provided.
Answers are plain numbers, in µM.

Oc1c(C(Nc2ccccc2)c2ccccn2)ccc2cccnc12 (stereo not drawn) | 17
C[C@H](NCc1ccccc1)C(=O)N[C@@H](CCCCN)C(=O)N[C@@H](CCCNC(=N)N)C(=O)N[C@@H](CCCNC(=N)N)C(=O)O (H-[NBnAla]KRR-OH) | 5.3
N=C(N)Nc1ccc(OC(=O)c2ccc(NC(=N)N)cc2)cc1 | 2
N=C(N)N/N=C/c1ccc(/C=N/NC(=N)N)cc1 | 44

I would be grateful if you could provide Ki for each of the following entries.
1. N=C(N)NCCC[C@@H]1NC(=O)[C@H](CCCCN)NC(=O)CNC(=O)[C@@H](N)CSSC[C@@H](C(=O)O)NC(=O)[C@H](CO)NC(=O)[C@H](CCCCN)NC1=O (H-CGKRKSC-OH; disulfide 1-7)
2. N#C/C(=C\c1ccc(O)cc1)C(N)=O
3. O=[N+]([O-])c1ccc(N=Nc2ccc(O)c3ccccc23)c([N+](=O)[O-])c1

-- reply
1: 1.4; 2: 35.7; 3: 15

-- ask Provide Ki value for the following compound: CCCCC(CC)CN=C(N)N=C(N)NCCCCCCNC(N)=NC(N)=NCC(CC)CCCC (stereo not drawn) [ALEXIDINE HYDROCHLORIDE]
-- reply 41

====

- target-under-test: Genome polyprotein (dengue virus type 2, UniProt P29990)
- Sequence (P29990 1346-1475 limits assumed): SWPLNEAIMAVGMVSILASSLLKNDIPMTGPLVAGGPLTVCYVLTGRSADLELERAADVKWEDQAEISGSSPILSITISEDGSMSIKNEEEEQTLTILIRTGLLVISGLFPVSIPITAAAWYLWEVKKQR
- Sequence (P29990 1476-2093 limits assumed): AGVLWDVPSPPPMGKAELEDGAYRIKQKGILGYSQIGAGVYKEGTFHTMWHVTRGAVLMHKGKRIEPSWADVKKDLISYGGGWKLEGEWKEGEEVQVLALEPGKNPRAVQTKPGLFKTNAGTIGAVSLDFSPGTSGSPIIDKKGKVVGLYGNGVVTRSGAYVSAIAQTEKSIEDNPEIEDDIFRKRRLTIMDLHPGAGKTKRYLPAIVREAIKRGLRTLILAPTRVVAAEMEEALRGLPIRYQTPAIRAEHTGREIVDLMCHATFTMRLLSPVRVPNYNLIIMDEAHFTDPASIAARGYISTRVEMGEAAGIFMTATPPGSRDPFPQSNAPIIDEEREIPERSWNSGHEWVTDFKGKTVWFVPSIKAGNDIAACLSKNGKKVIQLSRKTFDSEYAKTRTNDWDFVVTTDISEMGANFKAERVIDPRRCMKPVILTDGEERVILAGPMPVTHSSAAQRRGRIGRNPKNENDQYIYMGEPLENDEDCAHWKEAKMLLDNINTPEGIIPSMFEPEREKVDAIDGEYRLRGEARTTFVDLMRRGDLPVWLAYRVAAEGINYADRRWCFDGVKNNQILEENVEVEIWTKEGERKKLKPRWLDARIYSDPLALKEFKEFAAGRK
- assay: Inhibition of DENV2 NS2B-NS3 protease using Boc-Gly-Arg-Arg-MCA as substrate by fluorescence assay
measure: IC50 (µM)
One number for each entry, in µM.

CCCCC1C(C(=O)N(C)OC)C(c2ccccc2)CCN1C(=O)OC(C)(C)C (configuration not stated) | 257

Continue with the compound presented below.
-- ask Provide IC50 value for the following compound: CCCCC1C(C(=O)OCC)C(c2ccccc2)CCN1C(=O)OC(C)(C)C (configuration not stated)
-- reply 214

====

Exercise: state measured EC50 for each of the compounds provided.
- Tested on: dengue virus type 2
- assay: Antiviral activity against Dengue virus 2 infected in african green monkey Vero cells assessed as reduction in viral titer
- Format: functional, organism-based
Answers are plain numbers, in µM.

Solved entries:
O=C(Nc1nc2ccc([N+](=O)[O-])cc2s1)c1cccc(Sc2ccc([N+](=O)[O-])cc2)c1 | 0.3
O=C(O)c1cc2sc(NC(=O)c3ccccc3Sc3ccc(C(F)(F)F)cc3)nc2cc1O | 0.9
O=C(Nc1nc2ccc([N+](=O)[O-])cc2s1)c1ccccc1Sc1ccc(C(F)(F)F)cc1 | 0.1

Continue with the compound presented below.
-- ask Provide EC50 value for the following compound: COc1cc2nc(NC(=O)c3ccccc3Sc3ccc(C(F)(F)F)cc3)sc2cc1OC
-- reply 2.5

====

- target-under-test: Genome polyprotein (dengue virus type 2)
- assay: Inhibition of DENV NS2B/NS3 pro
measure: IC50 (nM)
One number for each entry, in nM.

-- ask Provide IC50 value for the following molecule: Cc1cc(O)c(S(=O)(=O)O)cc1Cc1cc(S(=O)(=O)O)c(O)c(Cc2cc(S(=O)(=O)O)c(O)cc2C)c1C
-- reply 815

====

- Test system: dengue virus type 4
- assay: Antiviral activity against DENV4 infected in human Huh-7 cells assessed as inhibition of viral replication measured after 72 hrs post infection by qRT-PCR analysis
- Format: functional, organism-based
- condition-parameters: Huh-7, 72 h
measure: EC50
Express the reported value numerically, then name its unit.

-- ask # return EC50 of CC(=O)O[C@H]1CC(C)(C)C(=C=C/C(C)=C/C=C/C=C/C=C(C)/C=C2C=C(/C=C/[C@@]34O[C@]3(C)C[C@@H](O)CC4(C)C)C(=O)O/2)[C@](C)(O)C1 (system: dengue virus type 4)
-- reply 5.84 µM

====

- target-under-test: Genome polyprotein (dengue virus type 2)
- assay: Binding affinity to DENV2 NS2B/NS3 protease assessed as inhibition constant
Positions of bridges follow the written chain, without caps; N, C: chain ends. Non-standard residues stand in square brackets, D forms with d. Residues, ends and D or L forms follow the SMILES beside them. NBnAla = C[C@H](NCc1ccccc1)C(=O)O
Exercise: state measured pKi for each of the compounds provided.
Answers are plain numbers, as −log10 of the molar value.

Solved entries:
O=[N+]([O-])c1ccc(N=Nc2ccc(O)c3ccccc23)c([N+](=O)[O-])c1 | 4.82
N=C(N)Nc1ccc(OC(=O)c2ccc(NC(=N)N)cc2)cc1 | 5.70
Oc1c(C(Nc2ccccc2)c2ccccn2)ccc2cccnc12 (stereo not drawn) | 4.77
N=C(N)NCCC[C@@H]1NC(=O)[C@H](CCCCN)NC(=O)CNC(=O)[C@@H](N)CSSC[C@@H](C(=O)O)NC(=O)[C@H](CO)NC(=O)[C@H](CCCCN)NC1=O (H-CGKRKSC-OH; disulfide 1-7) | 5.85

I would be grateful if you could provide pKi for each of the following entries.
1. N=C(N)N/N=C/c1ccc(/C=N/NC(=N)N)cc1
2. C[C@H](NCc1ccccc1)C(=O)N[C@@H](CCCCN)C(=O)N[C@@H](CCCNC(=N)N)C(=O)N[C@@H](CCCNC(=N)N)C(=O)O (H-[NBnAla]KRR-OH)
3. CO[C@H]1C[C@H](O[C@@H]2/C(C)=C/C[C@@H]3C[C@@H](C[C@]4(CC[C@H](C)[C@@H](C5CCCCC5)O4)O3)OC(=O)[C@@H]3C=C(C)/C(=N/O)[C@H]4OC/C(=C\C=C\[C@@H]2C)[C@]43O)O[C@@H](C)[C@@H]1O
4. N#C/C(=C\c1ccc(O)cc1)C(N)=O

-- reply
4.36
5.28
4.20
4.45

====

- assay: Binding affinity to wildtype DENV3 protease assessed as inhibition constant using [Ac-[D-EDANS]KRRSWP[K-DABCYL]-AMIDE] as substrate by FRET-based enzymatic assay
- Parameters: species or system dengue virus type 3
Positions of bridges follow the written chain, without caps; N, C: chain ends. Residues, ends and D or L forms follow the SMILES beside them.
measure: pKi
Answers are plain numbers, as −log10 of the molar value.

CC[C@H](C)[C@@H]1NC(=O)[C@H](CCCNC(=N)N)NC(=O)[C@H](C)NC(=O)[C@H](CCCCN)NC(=O)[C@@H](NC(=O)[C@@H]2CCCN2)CSSC[C@@H](C(=O)N[C@@H](C)C(=O)O)NC(=O)CNC(=O)CNC(=O)[C@H](Cc2ccc(O)cc2)NC(=O)CNC(=O)CNC(=O)[C@H]([C@@H](C)CC)NC1=O (H-PCKARIIGGYGGCA-OH; disulfide 2-13) | 3.17
CC[C@H](C)[C@@H]1NC(=O)[C@H](Cc2c[nH]c3ccccc23)NC(=O)[C@H](C)NC(=O)[C@H](CCCNC(=N)N)NC(=O)[C@@H](NC(=O)[C@@H]2CCCN2)CSSC[C@@H](C(=O)N[C@H](C)C(=O)O)NC(=O)CNC(=O)CNC(=O)[C@H](Cc2ccc(O)cc2)NC1=O | 3.84
CC[C@H](C)[C@@H]1NC(=O)[C@H](CCCNC(=N)N)NC(=O)[C@H](C)NC(=O)[C@H](CCCNC(=N)N)NC(=O)[C@@H](NC(=O)[C@@H]2CCCN2)CSSC[C@@H](C(=O)N[C@@H](C)C(=O)O)NC(=O)CNC1=O (H-PCRARIGCA-OH; disulfide 2-8) | 3.99
CC[C@H](C)[C@@H]1NC(=O)[C@H](CCCNC(=N)N)NC(=O)[C@H](C(C)C)NC(=O)[C@H](CCCNC(=N)N)NC(=O)[C@@H](NC(=O)[C@@H]2CCCN2)CSSC[C@@H](C(=O)N[C@H](C)C(=O)O)NC(=O)CNC(=O)CNC(=O)[C@H](Cc2ccc(O)cc2)NC1=O | 4.59
CC[C@H](C)[C@@H]1NC(=O)[C@H](CCCNC(=N)N)NC(=O)[C@H](C)NC(=O)[C@H](CCCNC(=N)N)NC(=O)[C@@H](NC(=O)[C@@H]2CCCN2)CSSC[C@@H](C(=O)N[C@@H](C)C(=O)O)NC(=O)CNC(=O)[C@H](Cc2ccc(O)cc2)NC1=O (H-PCRARIYGCA-OH; disulfide 2-9) | 3.33

I would be grateful if you could provide pKi for each of the following entries.
1. CC[C@H](C)[C@@H]1NC(=O)[C@H](CCCNC(=N)N)NC(=O)[C@H](C)NC(=O)[C@H](CCCNC(=N)N)NC(=O)[C@@H](NC(=O)[C@@H]2CCCN2)CSSC[C@@H](C(=O)N[C@@H](C)C(=O)O)NC(=O)CNC(=O)CNC(=O)[C@H](Cc2ccc(O)cc2)NC1=O (H-PCRARIYGGCA-OH; disulfide 2-10)
2. CC[C@H](C)[C@@H]1NC(=O)[C@H](CCCNC(=N)N)NC(=O)[C@H](C)NC(=O)[C@H](CCCCN)NC(=O)[C@@H](NC(=O)[C@@H]2CCCN2)CSSC[C@@H](C(=O)N[C@@H](C)C(=O)O)NC(=O)CNC(=O)CNC(=O)[C@H](Cc2ccc(O)cc2)NC(=O)CNC1=O (H-PCKARIGYGGCA-OH; disulfide 2-11)

-- reply
3.01
3.42
